Molecular target: semi-purified γ-secretase
Assay: In vitro APP processing (C100Flag substrate, semi-purified γ-secretase, MESO Scale ELISA), dog brain membranes
Type: biochemical
Details: in vitro assay, Aβ42, read-out: Tissue autonomous Aβ42, Dog
PARAMETER MEASURED: IC50 (nM)
Report the figure in nM without appending any unit label.

For record O=S(=O)(N[C@H]1CC[C@@](c2cc(F)ccc2F)(S(=O)(=O)c2ccc(Cl)cc2)CC1)C(F)(F)F the listed IC50 is 1.3

---

Below, each entry is listed alongside its reported IC50.
Target: semi-purified γ-secretase
Assay: In vitro APP processing (C100Flag substrate, semi-purified γ-secretase, MESO Scale ELISA), rat brain membranes
Type: biochemical
Conditions: in vitro assay, Aβ40, read-out: Tissue autonomous Aβ40, Rat
Write your answer as a measured quantity: the number, then the unit.

>>> result("O=S(=O)(N[C@H]1CC[C@@](c2cc(F)ccc2C(F)(F)F)(S(=O)(=O)c2ccc(C(F)(F)F)cc2)CC1)C(F)(F)F")
"1.4 nM"

Let's switch to this compound now.
For record O=S(=O)(N[C@H]1CC[C@@](c2cc(F)ccc2F)(S(=O)(=O)c2ccc(Cl)cc2)CC1)C(F)(F)F the listed IC50 is 1 nM

Data origin, for the record: patent US8609897B2
